meta.source: PubChem BioAssay (NCI)

Test system: T-47D breast
Protocol details: NCI tumour cell line growth inhibition, 48 h
In this section, each of the molecules is paired with its reported TGI.

>>> print(df.to_string())
                                   molecule  reported_endpoint  data_value
0  O=C(Cn1c2ccc(Br)cc2c2nc3ccccc3nc21)Nc1ccccc1                TGI     57.1 µM

For the molecule shown here, CC(C)(C)OC(=O)N1CCCC1C(=O)NC(c1ccccc1)c1ccccc1 (centres undefined) , give the reported TGI.
> 100 µM

And C[C@@H]1CCc2ncc(F)cc2[C@H]2CCCN2c2ccn3ncc(c3n2)C(=O)N1 ?
> 100 µM

Same lookup for COC(=O)c1c(O)ccc2c1c1cc3ccccc3c(O)c1n2CCc1ccc(OC)c(OC)c1 , please.
> 100 µM

How about COc1cc(-c2nn(-c3cccc(NC(=O)CCN4CCN(c5ccccc5)CC4)c3)cc2-c2ccncc2)ccc1Cl ?
> 100 µM

Next molecule: CCOC(=O)c1c(NC(=O)c2ccc(Cl)cc2)sc2c(CN(C)C)c(O)ccc12
> 100 µM
